Assay: in vitro
Conditions: human
Where a name gives a salt, the structure may show the parent alone.
reported.endpoint: CC50

Entry under review: Nc1ccn([C@@H]2O[C@H](CO)[C@@H](O)C2(F)F)c(=O)n1 [GEM, Gemcitabine hydrochloride] . Reported CC50?
> 100 µM

Value source: paper PMC7113684
